Target: KRAS (Homo sapiens)
Construct: endogenous in cells; host or cells: KE39 (KRAS amplified) cells
Sequence (P01116 1-188 isoform P01116-2): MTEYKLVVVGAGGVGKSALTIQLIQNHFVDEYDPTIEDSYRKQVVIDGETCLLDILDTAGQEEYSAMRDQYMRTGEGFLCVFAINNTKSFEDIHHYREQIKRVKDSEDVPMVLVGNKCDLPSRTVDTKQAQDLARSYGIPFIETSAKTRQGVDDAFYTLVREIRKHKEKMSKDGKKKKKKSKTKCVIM
Assay: KRASamp MSD assay
Format: cell-based
Conditions: KE39 (KRAS amplified) cells, treated with test compounds for 24 hr, MSD readout of KRAS degradation
property name: DC50

[
  {
    "compound": "C#Cc1c(F)ccc2cc(O)cc(-c3ncc4c(N5CCC[C@@](C)(O)C5)nc(OCC5(CN6CCC7(CC6)CC(N6CCN(c8cccc9c8n(C)c(=O)n9C8CCC(=O)NC8=O)CC6)C7)CC5)nc4c3F)c12 (some centres unmarked)",
    "subject of test": "KRAS (Homo sapiens)",
    "DC50": "< 1 nM"
  }
]

### Prompt Form field: DC50 recorded for CCc1c(F)ccc2cc(O)cc(-c3ncc4c(N5CC[C@@H](O)C5)nc(OC[C@@]56CCCN5[C@H](COC(=O)N5CCC7(CC5)CC(N5CCC(c8ccc9c(c8)n(C)c(=O)n9C8CCC(=O)NC8=O)CC5)C7)CC6)nc4c3F)c12 (some centres unmarked) with KRAS (Homo sapiens) (enter value)
### Response 1 to 10 nM
